Target: cloned hNav1.8 channels expressed in CHO cells (Homo sapiens)
Construct: expressed in transfected cells
Test: Na+ channel blocking examination, automated whole-cell patch clamp (IonWorks Quattro)
Format: cell-based
Conditions: IC50, type of block: Inactivated state, hNav1.8 in CHO cells; test pulse TP12 (inactivated state block)
OBSERVABLE: IC50 (µM)
Reply with just the number (in µM).

State IC50 on cloned hNav1.8 channels expressed in CHO cells (Homo sapiens). Entry: "COC[C@@H](NC(C)=O)C(=O)NCc1ccccc1"
278

###

Target: cloned hNav1.8 channels expressed in CHO cells (Homo sapiens, UniProt Q9Y5Y9)
Construct: expressed in transfected cells
Sequence (Q9Y5Y9 whole entry): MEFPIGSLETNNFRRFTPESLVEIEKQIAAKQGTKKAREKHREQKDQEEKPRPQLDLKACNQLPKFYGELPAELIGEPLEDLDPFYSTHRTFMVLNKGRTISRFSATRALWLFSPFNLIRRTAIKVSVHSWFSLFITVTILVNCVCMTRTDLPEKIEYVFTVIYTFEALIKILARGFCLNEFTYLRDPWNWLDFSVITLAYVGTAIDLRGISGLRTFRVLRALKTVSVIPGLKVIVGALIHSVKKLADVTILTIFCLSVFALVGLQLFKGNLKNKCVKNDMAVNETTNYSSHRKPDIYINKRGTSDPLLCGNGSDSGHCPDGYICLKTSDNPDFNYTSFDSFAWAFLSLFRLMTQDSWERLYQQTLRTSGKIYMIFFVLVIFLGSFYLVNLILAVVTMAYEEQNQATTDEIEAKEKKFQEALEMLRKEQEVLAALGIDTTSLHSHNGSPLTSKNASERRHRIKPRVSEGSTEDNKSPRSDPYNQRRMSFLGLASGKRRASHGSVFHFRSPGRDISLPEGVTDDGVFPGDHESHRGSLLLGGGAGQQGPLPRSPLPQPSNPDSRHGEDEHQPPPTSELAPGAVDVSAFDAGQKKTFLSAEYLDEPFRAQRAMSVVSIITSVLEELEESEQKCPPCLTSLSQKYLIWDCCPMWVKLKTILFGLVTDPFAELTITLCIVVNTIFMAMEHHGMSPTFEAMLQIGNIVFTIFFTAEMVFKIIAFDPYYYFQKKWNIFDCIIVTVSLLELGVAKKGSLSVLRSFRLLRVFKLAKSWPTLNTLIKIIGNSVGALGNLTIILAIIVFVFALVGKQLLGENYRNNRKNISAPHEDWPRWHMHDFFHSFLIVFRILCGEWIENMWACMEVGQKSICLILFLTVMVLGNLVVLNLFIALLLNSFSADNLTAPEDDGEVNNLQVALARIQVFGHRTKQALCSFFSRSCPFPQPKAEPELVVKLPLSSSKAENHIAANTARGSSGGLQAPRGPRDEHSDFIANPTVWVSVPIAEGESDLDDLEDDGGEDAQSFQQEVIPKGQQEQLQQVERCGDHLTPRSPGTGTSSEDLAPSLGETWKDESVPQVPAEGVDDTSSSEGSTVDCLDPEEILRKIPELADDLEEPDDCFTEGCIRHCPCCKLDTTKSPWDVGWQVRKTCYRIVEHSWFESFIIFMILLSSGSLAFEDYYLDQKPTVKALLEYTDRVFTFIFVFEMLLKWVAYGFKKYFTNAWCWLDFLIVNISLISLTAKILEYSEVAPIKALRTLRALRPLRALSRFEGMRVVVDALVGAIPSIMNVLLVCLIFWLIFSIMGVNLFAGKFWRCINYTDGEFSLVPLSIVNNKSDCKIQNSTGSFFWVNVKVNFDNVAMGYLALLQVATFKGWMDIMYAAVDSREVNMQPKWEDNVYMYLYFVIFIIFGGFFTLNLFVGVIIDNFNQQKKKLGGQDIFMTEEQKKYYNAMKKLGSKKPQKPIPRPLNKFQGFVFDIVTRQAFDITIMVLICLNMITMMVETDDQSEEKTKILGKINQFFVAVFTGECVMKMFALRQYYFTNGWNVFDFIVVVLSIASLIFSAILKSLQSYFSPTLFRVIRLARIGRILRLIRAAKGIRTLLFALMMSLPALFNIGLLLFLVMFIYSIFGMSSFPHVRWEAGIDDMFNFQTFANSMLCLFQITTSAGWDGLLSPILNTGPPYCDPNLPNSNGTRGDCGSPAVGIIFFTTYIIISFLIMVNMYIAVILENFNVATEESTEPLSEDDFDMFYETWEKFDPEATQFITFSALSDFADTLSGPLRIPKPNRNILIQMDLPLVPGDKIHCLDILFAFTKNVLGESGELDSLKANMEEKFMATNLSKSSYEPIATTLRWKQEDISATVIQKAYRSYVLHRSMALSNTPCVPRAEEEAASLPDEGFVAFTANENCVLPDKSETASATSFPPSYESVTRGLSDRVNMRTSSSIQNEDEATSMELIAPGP
Experiment: Na+ channel blocking examination, automated whole-cell patch clamp (IonWorks Quattro)
Format: cell-based
Settings: IC50, type of block: 10 Hz, hNav1.8 in CHO cells; test pulse TP11 (frequency-dependent block at 10 Hz)
OBSERVABLE: IC50

Dear colleague, please send me the reported IC50 for "COC[C@@H](NC(C)=O)C(=O)NCc1ccccc1" when you can.
> 300 µM
